// data source = patent US20230202989A1

System: IL-1β
Assay: PBMC assay: inhibition of IL-1β release after LPS stimulation (MSD)
Type: cell-based
Details: Homo sapiens, PBMC, 6 h, human PBMCs, 100 ng/ml LPS for 6 hrs, MSD, 96 well plates; read-out: IL1β IC50
Assign labels as follows, please: satisfied for IC50 below 400 nM; not satisfied for IC50 equal to or exceeding 400 nM.

Prompt: Quick check: IC50 of "CC(C)(F)c1nn(CC(=O)Nc2ccc3nncn3c2)c(=O)c2ccc(C(F)(F)F)cc12" under 400 nM?
Completion: not satisfied

Prompt: Quick check: IC50 of "CC(C)c1nn(CC(=O)Nc2cc(Br)c3nncn3c2)c(=O)c2ccc(C(F)(F)F)cc12" under 400 nM?
Completion: not satisfied

Prompt: Quick check: IC50 of "CC(C)c1nn(CC(=O)Nc2ccc3cnn(C(F)F)c3c2)c(=O)c2ccc(C(F)(F)F)cc12" under 400 nM?
Completion: not satisfied

Further cases:
Prompt: Quick check: IC50 of CC(=O)N1C[C@H](O)C[C@@H](NC(=O)Cn2nc(C(C)C)c3cc(C(F)(F)F)ccc3c2=O)C1 (single isomer, unassigned) under 400 nM?
Completion: not satisfied

Prompt: Quick check: IC50 of "CC(C)c1nn(CC(=O)Nc2ncc3ncn(C)c3n2)c(=O)c2ccc(C(F)(F)F)cc12" under 400 nM?
Completion: not satisfied

Prompt: Quick check: IC50 of "CCc1nn(CC(=O)N[C@H]2C[C@@](C)(O)C2)c(=O)c2ccc(C3CC3)cc12" under 400 nM?
Completion: satisfied

Prompt: Quick check: IC50 of "CCc1nn(CC(=O)NC2CC2)c(=O)c2ccccc12" under 400 nM?
Completion: not satisfied

Prompt: Quick check: IC50 of "CC(C)c1nn(CC(=O)Nc2ccc3cncn3c2)c(=O)c2ccc(Cl)cc12" under 400 nM?
Completion: not satisfied

Prompt: Quick check: IC50 of "Cc1cn2cc(NC(=O)Cn3nc(C(C)C)c4cc(C(F)(F)F)ccc4c3=O)ccc2n1" under 400 nM?
Completion: satisfied

Prompt: Quick check: IC50 of "CC(C)c1nn(CC(=O)Nc2ccc3nn(C)cc3c2)c(=O)c2ccc(C(F)(F)F)cc12" under 400 nM?
Completion: not satisfied

Prompt: Quick check: IC50 of "CC(C)c1nn(CC(=O)Nc2ccc3nncn3n2)c(=O)c2ccc(C(C)(C)F)cc12" under 400 nM?
Completion: satisfied

Prompt: Quick check: IC50 of "CCc1nn(CC(=O)Nc2ccc3nncn3c2)c(=O)c2ccc(Br)cc12" under 400 nM?
Completion: satisfied

---

System: IL-1β
Assay: PBMC assay: inhibition of IL-1β release after LPS stimulation (MSD)
Assay type: cell-based
Settings: Homo sapiens, PBMC, 6 h, human PBMCs, 100 ng/ml LPS for 6 hrs, MSD, 96 well plates; read-out: IL1β IC50
parameterMeasured: IC50

Prompt: Please tell me: IC50 of CC(C)c1nn(CC(=O)Nc2ccc3cn(C)nc3c2)c(=O)c2ccc(C(F)(F)F)cc12 [Final Cpd X123] , system IL-1β?
Completion: 2700 nM

Prompt: Please tell me: IC50 of CC(C)c1nn(CC(=O)N[C@@H]2CCCC[C@H]2O)c(=O)c2ccc(C(F)(F)F)cc12 [Final Cpd X98] , system IL-1β?
Completion: 1150 nM

Prompt: Please tell me: IC50 of CC(C)c1nn(CC(=O)Nc2ccncn2)c(=O)c2ccc(C3CC3)cc12 [Final Cpd 23] , system IL-1β?
Completion: 287 nM

Prompt: Please tell me: IC50 of CC(C)c1nn(CC(=O)Nc2ccc3nncn3c2)c(=O)c2ccc(C3CCC3)cc12 [X-1078] , system IL-1β?
Completion: 1310 nM

Prompt: Please tell me: IC50 of O=C(Cn1nc(C2CC2)c2cc(Cl)ccc2c1=O)Nc1ccc2nncn2c1 [X-1071] , system IL-1β?
Completion: 398 nM

Prompt: Please tell me: IC50 of CCc1nn(CC(=O)N[C@H]2C[C@@](C)(O)C2)c(=O)c2ccc(C(F)(F)F)cc12 [Final Cpd 19] , system IL-1β?
Completion: 140 nM

Prompt: Please tell me: IC50 of CC(C)c1nn(CC(=O)Nc2ccc3nncn3c2)c(=O)c2ccc(Br)cc12 [Final Cpd 36] , system IL-1β?
Completion: < 25 nM

Prompt: Please tell me: IC50 of CC(C)c1nn(CC(=O)N[C@H]2CC[C@](C)(O)CC2)c(=O)c2ccc(C(F)(F)F)cc12 [Final Cpd X78] , system IL-1β?
Completion: 861 nM

---

Test system: IL-1β
Test: PBMC assay: inhibition of IL-1β release after LPS stimulation (MSD)
Format: cell-based
Details: Homo sapiens, PBMC, 6 h, human PBMCs, 100 ng/ml LPS for 6 hrs, MSD, 96 well plates; read-out: IL1β IC50
parameterMeasured: log10 of IC50 (log10 of the value in nM)
Would you kindly interpret these values as log10 of IC50 expressed in nM?

Examples with their reported log10 of IC50 follow.
Prompt: Given the entry "CC(C)c1nn(CC(=O)Nc2ccc3c(c2)ncn3C)c(=O)c2ccc(C(F)(F)F)cc12" , report its measured log10 of IC50.
Completion: 3.67

Prompt: Given the entry "CC(C)c1nn(CC(=O)N[C@H]2C[C@H](O)C2)c(=O)c2ccc(C(F)(F)F)cc12" , report its measured log10 of IC50.
Completion: 3.03

Further cases:
Prompt: Given the entry "CC(C)c1nn(CC(=O)N[C@@H]2CC[C@](C)(O)C2)c(=O)c2ccc(C(F)(F)F)cc12" , report its measured log10 of IC50.
Completion: 3.10

Prompt: Given the entry "O=C(Cn1nc(C(F)F)c2cc(C(F)(F)F)ccc2c1=O)Nc1ccc2nncn2c1" , report its measured log10 of IC50.
Completion: 2.37

Prompt: Given the entry "CCc1nn(CC(=O)Nc2ccncn2)c(=O)c2ccc(C)cc12" , report its measured log10 of IC50.
Completion: 3.46

Prompt: Given the entry "CCN1CCC[C@@H](NC(=O)Cn2nc(C(C)C)c3cc(C(F)(F)F)ccc3c2=O)C1" , report its measured log10 of IC50.
Completion: 1.95

Prompt: Given the entry "CC(C)c1nn(CC(=O)Nc2ccc3c(c2)[nH]c(=O)n3C)c(=O)c2ccc(C(F)(F)F)cc12" , report its measured log10 of IC50.
Completion: 1.81

Prompt: Given the entry "CCc1nn(CC(=O)Nc2ccnnc2)c(=O)c2ccc(C(F)(F)F)cc12" , report its measured log10 of IC50.
Completion: 2.34

---

IC50 overview
System: IL-1β
Assay: PBMC assay: inhibition of IL-1β release after LPS stimulation (MSD)
Format: cell-based
Conditions: Homo sapiens, PBMC, 6 h, human PBMCs, 100 ng/ml LPS for 6 hrs, MSD, 96 well plates; read-out: IL1β IC50
Write down the numeric answer in nM and omit the unit.

Prompt: Given the entry "CC(C)c1nn(CC(=O)N[C@H]2C[C@@](O)(C(F)(F)F)C2)c(=O)c2ccc(C(F)(F)F)cc12" , report its measured IC50.
Completion: 2130

Prompt: Given the entry "CC(C)c1nn(CC(=O)N[C@H]2C[C@@](C)(O)C2)c(=O)c2ccc(C(C)(C)O)cc12" , report its measured IC50.
Completion: 11000

Prompt: Given the entry "Cn1nc(NC(=O)Cn2nc(C3CC3)c3cc(Br)ccc3c2=O)ccc1=O" , report its measured IC50.
Completion: 497

Prompt: Given the entry "CC(C)c1nn(CC(=O)Nc2cnc3nccn3c2)c(=O)c2ccc(C(F)(F)F)cc12" , report its measured IC50.
Completion: 792

Prompt: Given the entry "CC(C)c1nn(CC(=O)NC2(C)CC(F)(F)C2)c(=O)c2ccc(C(F)(F)F)cc12" , report its measured IC50.
Completion: 2940

Further cases:
Prompt: Given the entry "CC(C)c1nn(CC(=O)Nc2ccc3cnn(C(F)F)c3c2)c(=O)c2ccc(Br)cc12" , report its measured IC50.
Completion: 3010

Prompt: Given the entry "CC(C)c1ccc2c(=O)n(CC(=O)Nc3cn4cnnc4cn3)nc(C(C)C)c2c1" , report its measured IC50.
Completion: 137

---

Test system: IL-1β
Assay: PBMC assay: inhibition of IL-1β release after LPS stimulation (MSD)
Format: cell-based
Settings: Homo sapiens, PBMC, 6 h, human PBMCs, 100 ng/ml LPS for 6 hrs, MSD, 96 well plates; read-out: IL1β IC50
pIC50 overview
In textbook form, pIC50 equals minus log to base ten of the concentration in mol/L.

Prompt: Please tell me: pIC50 of CC(C)c1nn(CC(=O)Nc2ccc3cnn(C)c3c2)c(=O)c2ccc(Br)cc12 [X-1033] , system IL-1β?
Completion: 6.07

Further cases:
Prompt: Please tell me: pIC50 of CC(C)c1nn(CC(=O)Nc2ccc3nncn3n2)c(=O)c2ccc(C(C)(F)F)cc12 [X-1003] , system IL-1β?
Completion: 7.40

Prompt: Please tell me: pIC50 of CC(C)c1nn(CC(=O)Nc2ccc3nncn3c2)c(=O)c2ccc(C3(F)CC3)cc12 [X-1074] , system IL-1β?
Completion: 7.57
